- assay-comment: microbe, parasite or virus in culture
- experimental-parameters: Mycobacterium tuberculosis, 96 h, read-out: pIC50 (converted)
reported-endpoint: IC50

>>> assay_value("CCOc1cccc(Cn2cnc(CC)cc2=O)n1")
"> 501 µM"
>>> assay_value("Cn1cc(CN2CCC(F)(F)C3(CCN(c4cnccn4)C3)C2)cn1 (configuration not stated)")
"> 50.1 µM"
>>> assay_value("COc1ccc(C2CCCN2S(=O)(=O)N(C)CC(C)C)cc1 (configuration not stated)")
"13.2 µM"
>>> assay_value("O=C(NCCCn1ncc2ccccc21)C1CC1")
"147 µM"
>>> assay_value("OC1CCN(Cc2ccc3c(c2)CCC3)C1 (configuration not stated)")
"> 501 µM"
>>> assay_value("CC(CNC(=O)c1cnccn1)Oc1cccc(Br)c1 (configuration not stated)")
"> 50.1 µM"
>>> assay_value("CCCC(C#N)NC(=O)c1ccn(-c2ccccc2)n1 (configuration not stated)")
"> 501 µM"
